Cited source: patent US20240317859A1

System name: Human PD-1/PDCD1 Protein (PD-1) (human, UniProt Q15116 25-167, limits assumed)
Sequence (Q15116 25-167 limits assumed): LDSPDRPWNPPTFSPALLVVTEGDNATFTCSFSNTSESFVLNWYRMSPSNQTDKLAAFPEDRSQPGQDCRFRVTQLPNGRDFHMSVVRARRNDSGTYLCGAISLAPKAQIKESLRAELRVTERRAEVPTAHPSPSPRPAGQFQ
Procedure text: SPR, Biacore 8K; PD-1 captured by anti-His antibody, antibody in flow
Quantity: Kd (nM)
Field: numeric (nM). Do not append units.

Examples with their reported Kd follow.
# lookup: Kd of HM268-J9 (antibody, human IgG1, V domains shown, also called humanized HM268, VH ver.J / VL ver.9) VH: QVQLVQSGPEVKKPGASVKVVCKTSGYTFTSYYIQWVRQVPGQGLEWMGWIYFGDASTKYNEKFKGKTTLTADKSTSTAYMELRSLRSDDTAVYYCASYYGSYFDYWGQGTTVTVSS VL: DIQMTQSPSSLSASVGDRVTITCRASQDISNYLNWYQQKPGKAPKLLIYSTSRLHSGVPSRFSGSGSGTDYTLTISSLQPEDFATYYCQQGSTLPFTFGQGTKLEIK 0.0252

Would you mind doing HM242-D1 (antibody, human IgG1, V domains shown, also called humanized HM242, VH ver.D / VL ver.1) VH: QVQLVQSGPEVKKPGASVKVVCKASGYTFTSYYIQWVRQVPGQGLEWMGWIYPGDGTTKYNEKFKGRVTMTIDTSTSTAYMELRSLRSDDTAVYYCASYYGSYFDYWGQGTLVTVSS VL: DIQMTQTTSSLSASVGDRVTITCRASQDISNYLNWYQQKPDGTVTLLIYYTSKLHSGVPSRFSGSGSGTDYTLTISSLEQKDFATYYCQQSSTLPFTFGQGTKLEIK as well? 0.103

Others:
# lookup: Kd of HM268-M8 (antibody, human IgG1, V domains shown, also called humanized HM268, VH ver.M / VL ver.8) VH: QVQLVQSGPEVKKPGASVKVVCKASGYTFTSYYIQWVRQVPGQGLEWMGWIYFGDASTKYNEKFKGRVTMTADTSTSTAYMELRSLRSDDTAVYYCASYYGSYFDYWGQGTTVTVSS VL: DIQMTQSPSSLSASVGDRVTITCRASQDISNYLNWYQQKPDGTVKLLIYSTSRLHSGVPSRFSGSGSGTDYTLTISSLQPEDFATYYCQQGSTLPFTFGQGTKLEIK 0.00359
